Tested on: Trypanosoma cruzi
testName: Trypanosoma cruzi phosphomannomutase and mannose-1-phosphate guanylyltransferase assay
Format: functional
Design: scale not given: direction of the effect not stated beside the values
settings: 10 µM
assayMetric: Percent Effect (%)

> print(dat)
                                    compound  experimentalresult
 1      CNC(=O)CN1CCCC12CCN(C(=O)c1ccsc1)CC2                3.94
 2  Cc1cccc(NC(=O)[C@@H]2CCCN2CC(=O)N2CCCCCC2)n1                5.75
 3  O=C(c1ccc(Br)o1)N1CCCCC1Cn1cccn1 (centres undefined)               0.279
 4  CS(=O)(=O)NC1CCCN(C(=O)NCc2cc[nH]n2)C1 (centres undefined)                   5
 5  O=C(c1ccc(F)cc1F)N1CC[C@H](O)[C@@H](N2CCOCC2)CC1               -1.58
 6  Cc1noc(CN2CCOC(CN(C)C)C2)n1 (centres undefined)                5.11
 7   CN(C)c1ncc(-c2cc(C(=O)O)n(CC3CC3)c2)cn1                1.95
 8  O=S(=O)(C1CC1)N1CCC2(CC1)CC(Oc1cccnc1)CO2 (centres undefined)                2.43
 9  Cc1occc1C(=O)NCc1ccc(N2CCCC(C(N)=O)C2)cc1 (centres undefined)               -3.61
10  CN(C)c1cc(C(=O)N2CCN(S(C)(=O)=O)CC2)ccn1               -5.35
11             c1cncc(-c2nccc(CN3CCCC3)n2)c1                2.37
12       Cc1cccn2c(=O)cc(OC(=O)c3ccccc3)nc12               -4.97
13  O=S(=O)(N1CCCC1)N1CCCCC1CCc1ccccc1 (centres undefined)               -3.59
14  COCCN1C(=O)CC(N2CCN(c3ccc(F)cc3)CC2)C1=O (centres undefined)             -0.0974
15  CCc1noc(C(C)N2CCN(Cc3nnc(C4CC4)o3)CC2)n1 (centres undefined)               0.402
16  CNc1cc2c(nn1)CCN(C(=O)C1CCCc3ccccc31)C2 (centres undefined)               -4.44
17  O=C(NCCOc1cccc(Cl)c1)C1CC(=O)N(CC2CC2)C1 (centres undefined)                6.82
18   O=C(NCc1cn2c(n1)CN(CC1CCOCC1)CC2)C1CCC1               -2.73
19  CN(C)c1cc2c(nn1)CCN(C(=O)Cc1noc3ccccc13)C2                6.85
20  CN1CCCC(Cc2cncc(C(=O)NCC3CC3)c2)C1 (centres undefined)                0.79
21  CC(C)NC(=O)C1CN(C(N)=O)Cc2ccnn2C1 (centres undefined)               0.579
22  CN1CCN(Cc2cn3c(n2)CN(C(=O)N2CCOCC2)CC3)CC1                3.25
23  CC(C)c1cc(NC(=O)CN2CCC(N3CCNC3=O)CC2)on1               -6.16
24  O=C1[C@H]2CN(c3ncccn3)C[C@H]2CN1Cc1ccncc1               -2.34
